From: the supplement of paper PMC10065799

A collection of sequences and their measured phosphorylation enrichment
# System: c-Abl (mouse);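 further: frequency after pTyr selection over input frequency; kinase dosed for 20-30% of maximal phosphorylation in three min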
# assay_name: phosphorylation enrichment, bacterial display (enrichment ratio); higher = better substrate or ligand; peptides without Tyr show the background
Give the value as a plain number.

As a guide, the following entries are already answered.
macromolecule_sequence="CGLPRYRWLTH [TSPAN12_Y143_Y138C]" quantitative_readout=0.453
macromolecule_sequence="PSPMPYAFCQM [FOXL2_Y215_S217F]" quantitative_readout=1.44
macromolecule_sequence="VNFQPYRKHKF [TEX37_Y28_D24N_YF]" quantitative_readout=0.542
macromolecule_sequence="SEVVPYEPPEV [TP53_Y220_V216E]" quantitative_readout=0.784
macromolecule_sequence="HHIDYYKETTN [FGFR1_Y654_K656E]" quantitative_readout=0.878
macromolecule_sequence="TYGQVYKGPHV [TNIK_Y40_R43P]" quantitative_readout=0.666

// next entry
Name the value of phosphorylation enrichment reported for KSVLVYRNGDP [DCDC2_Y22] when tested on c-Abl (mouse).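 Further: 11-residue human phosphosite peptides and single-mutation variants displayed on the E. coli surface, counted by deep sequencing, each peptide's frequency after selection divided by its frequency in the unselected input library.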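 Further: frequency after pTyr selection over input frequency; kinase dosed for 20-30% of maximal phosphorylation in three min.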
0.446
